Origin of the recorded values: ChEMBL document CHEMBL3988442

Biological target: Shiga toxin 2 (Escherichia coli O157:H7) (UniProt P09385+P09386)
Assay: E. coli 0.157:H7 Shiga Toxin SOP - stx2 screening assay
Type: functional
Parameters: scale not given: direction of the effect not stated beside the values
Settings: 30 µM
ENDPOINT NAME: Percent Effect (%)
Quick note: give the figure in %, leave out the unit.

{"COMPOUND": "Cc1ncc(CNC(=O)Cc2ccc(Cl)cc2)c(C2CCCN2C)n1 (stereo not drawn)", "Percent Effect / %": 15.8}
{"COMPOUND": "O=C(Cc1ccccc1)N1CCN(Cc2noc(C3CC3)n2)CC1", "Percent Effect / %": 0.476}
{"COMPOUND": "CN(Cc1nccn1CC(F)(F)F)C(=O)c1cccc(C#N)c1", "Percent Effect / %": -1.08}
{"COMPOUND": "O=C(c1cnccn1)N1CCCC2(COCCN(CC3CC3)C2)C1 (stereo not drawn)", "Percent Effect / %": 9.41}
{"COMPOUND": "Cc1noc(C(C)C)c1C(=O)N1CCOCC1CC(=O)c1ccco1 (stereo not drawn)", "Percent Effect / %": -4.27}
{"COMPOUND": "Cc1cc(=O)n(CC(=O)NCCC(C)C)c(-c2cccc(Cl)c2)n1", "Percent Effect / %": -9.6}
{"COMPOUND": "NC(=O)c1ccc(CN2CCCC(O)C2)cc1 (stereo not drawn)", "Percent Effect / %": -9.74}
{"COMPOUND": "CCN1CCOC(CNCc2ccccc2OCC(=O)N(C)C)C1 (stereo not drawn)", "Percent Effect / %": 21.6}
{"COMPOUND": "Cc1ccc(C)c(C(NC(=O)C(C)(C)C)c2cccnc2)c1 (stereo not drawn)", "Percent Effect / %": 1.8}
{"COMPOUND": "Cc1nc(C)n(CC2CCCN(CC(=O)Nc3nncs3)C2)n1 (stereo not drawn)", "Percent Effect / %": 25.6}

Fill in the blank: the reported Percent Effect of Cc1cc(NC(=O)CN2CCN(c3nccs3)C(C)C2)n(C)n1 (stereo not drawn) is ____. 7.19

Endpoint output: Percent Effect of CC(C)OCCN(Cc1cccc(O)c1)C1CCC(O)CC1 (stereo not drawn) . Value? -13.5

---

Measured Percent Effect, listed per entry.
Molecular target: Aspartate--tRNA(Asp/Asn) ligase (Mycobacterium tuberculosis (strain ATCC 25618 / H37Rv)); note: in the data most compounds retested in dose-response had high values
Sequence (whole entry): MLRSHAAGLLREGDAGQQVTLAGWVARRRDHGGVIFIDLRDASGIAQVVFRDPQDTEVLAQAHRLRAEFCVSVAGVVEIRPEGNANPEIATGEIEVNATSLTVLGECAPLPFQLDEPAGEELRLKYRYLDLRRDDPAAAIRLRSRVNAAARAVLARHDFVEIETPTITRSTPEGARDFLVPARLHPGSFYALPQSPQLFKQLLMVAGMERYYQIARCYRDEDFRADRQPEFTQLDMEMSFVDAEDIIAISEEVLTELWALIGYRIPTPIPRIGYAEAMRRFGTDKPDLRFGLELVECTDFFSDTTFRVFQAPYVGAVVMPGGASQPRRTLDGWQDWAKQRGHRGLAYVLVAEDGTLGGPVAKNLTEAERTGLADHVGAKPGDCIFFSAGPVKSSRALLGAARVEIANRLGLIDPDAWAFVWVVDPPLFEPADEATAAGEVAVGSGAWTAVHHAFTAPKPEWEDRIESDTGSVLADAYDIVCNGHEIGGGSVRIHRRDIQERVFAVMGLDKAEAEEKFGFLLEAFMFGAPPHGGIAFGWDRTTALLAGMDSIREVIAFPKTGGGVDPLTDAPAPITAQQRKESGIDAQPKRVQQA
Assay: Assay for Asp RNA synthetase-1 from Mycobacterium tuberculosis
Format: functional
Design: scale not given: direction of the effect not stated beside the values
Conditions: 30 µM
Provide only the numeric value, understood in %.

Look over these answered cases.
{"COMPOUND": "COc1ccc(F)cc1S(=O)(=O)NCC(c1cccn1C)N(C)C (configuration not stated)", "UNIT INFO": "%", "DATA VALUE": -5.43}
{"COMPOUND": "CNC(=O)c1ccc(C2CN(C(=O)COC)CCO2)nc1 (configuration not stated)", "UNIT INFO": "%", "DATA VALUE": 5.69}
{"COMPOUND": "CC(=O)N1CCC2(CCN(C(=O)c3ccc(Cl)c(C(F)(F)F)c3)CC2)C1", "UNIT INFO": "%", "DATA VALUE": 4.41}
{"COMPOUND": "Cc1cc(CNC2CCCN(c3cccnn3)C2)no1 (configuration not stated)", "UNIT INFO": "%", "DATA VALUE": 6.9}
{"COMPOUND": "COc1ccccc1OCC(=O)Nc1ncccc1OC(F)F", "UNIT INFO": "%", "DATA VALUE": 3.04}
{"COMPOUND": "CNC(=O)Nc1cc(-c2ccc(Br)cc2)nn1CCO", "UNIT INFO": "%", "DATA VALUE": -3.53}
{"COMPOUND": "CCn1cc(CN2CCCN(C(=O)C3=NN(C)C(=O)CC3)CC2)cn1", "UNIT INFO": "%", "DATA VALUE": 0.98}
{"COMPOUND": "O=C(NCCNCC1CNc2ccnn2C1)c1ccc(F)cc1 (configuration not stated)", "UNIT INFO": "%", "DATA VALUE": -3.94}

Using the record for `CC(C)(C(=O)NCC1CC1)c1ccccc1F` , report its Percent Effect. -1.98

So what does the record say about Percent Effect for `COC(=O)N1CCCN(C(=O)NCc2ccc(Cl)s2)CC1` ? 5.28

Entry CCc1nc(C2CCCN2CCCS(=O)(=O)c2ccccc2)no1 (configuration not stated) : reported Percent Effect = ? -4.39

Entry under review: Cc1ccc(CC(=O)N(C)CC2(O)CCN(c3ccccn3)C2)s1 (configuration not stated) . Reported Percent Effect? 5.23

What does the record list as Percent Effect for N#CCCN(CCC#N)C(=O)CN1CCCC1Cc1cccc(F)c1 (configuration not stated) ? 5.73

Returns the measured Percent Effect for the input compound. Input: CC(C(=O)NCCN1CCCCCC1)n1cncn1 (configuration not stated) -4.21

Sample `Cc1c[nH]nc1C1CCN(S(=O)(=O)N(C)C)CC1` — what was its Percent Effect? 2.31

What measured Percent Effect goes with `N#Cc1ncn(CC(=O)Nc2cc(Cl)ccc2F)n1` ? 9.55

Requested field: Percent Effect. Item: COCC(O)CNC(=O)c1cnc(-c2ccccc2)nc1O (configuration not stated) 2.15

# lookup: Percent Effect of COc1ccc(CN(Cc2cncn2C)CC2CCCO2)cc1OC (configuration not stated) 4.27

What value of Percent Effect has been recorded for this entry: `CCC1=N[C@@]2(CC[C@@H]3CN(CC4CC4)C[C@@H]32)C(=O)N1C` -1.79
